B1: HDV Ribozyme (parent)
chain: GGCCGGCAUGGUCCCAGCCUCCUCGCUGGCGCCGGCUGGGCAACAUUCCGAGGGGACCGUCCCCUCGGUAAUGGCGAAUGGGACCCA

variants of: B1; assay: self-cleavage, relative activity (ratio to wild type); higher = more cleavage; co-transcriptional
Kindly supply the reported self-cleavage values for the records listed here.

The cases that follow already have their self-cleavage on record.
Please list self-cleavage recorded for the variant GGCCGGCAUGGUCCCAGCCUCCUCGCUGGCGCCGGCUGGGCAACCUUCCGAGGGGACCGUCCCCUCGGUAAUGGCGAACGGGACCCA [A45C U79C]
0.0791

# return recorded self-cleavage for entry GGCCGGCAUGAUCCUAGCCUCCUCGCUGGCGCCGGCUGGGCAACAUUCCGAGGGGACCGUCCCCUCGGUAAUGGCGAAUGGGACCCA [G11A C15U]
0.479

# return recorded self-cleavage for input GGCCGGCAUGGUCCCAGCCUCCUCGCUGGCGCCGGCUGGGCAACAUUCCGAGGGGACCGUCCCCUCGGUAAUGGUGAAUGAGACCCA [C75U G81A]
0.166

Report self-cleavage for every entry below.
1. UGCCGGCAUGGUCCCAGCCUCCUCGUUGGCGCCGGCUGGGCAACAUUCCGAGGGGACCGUCCCCUCGGUAAUGGCGAAUGGGACCCA [G1U C26U]
2. GGCCGGCAUUAUCCCAGCCUCCUCGCUGGCGCCGGCUGGGCAACAUUCCGAGGGGACCGUCCCCUCGGUAAUGGCGAAUGGGACCCA [G10U G11A]
3. GGCCGGCAUGCUCCCAGCCUCCUCGCUGGCGCCGGCUGGGCAACAGUCCGAGGGGACCGUCCCCUCGGUAAUGGCGAAUGGGACCCA [G11C U46G]
4. GGCCGGCAUGGUCCGAGCCUCCUCGCUGGCGCCGGCUGGGCAACAUUCCGAGGGGACCGUCCCCUCGGUAAUGGCGGAUGGGACCCA [C15G A77G]

1: 0.222; 2: 0.267; 3: 0.133; 4: 0.332

Hi there! I need self-cleavage for each item below, if you can.
1. GGCCGGCAUGGUCCCAGCCUCCUCGCUGGCGCCGGCUGGGCAACAUUCCGAGCGGACCGUCGCCUCGGUAAUGGCGAAUGGGACCCA [G53C C62G]
2. GGCCGGCAUGGUCCCAGCCUCCUCGCUGGCACCGGCUGGGCAACAUUCCGAGGGGACCGUCCCCUCGGUAAUGGCGAACGGGACCCA [G31A U79C]
3. GGCCGGCAAGUUCCCAGCCUCCUCGCUGGCGCCGGCUGGGCAACAUUCCGAGGGGACCGUCCCCUCGGUAAUGGCGAAUGGGACCCA [U9A G11U]
4. GACCGGCAUGGUCCCAGCCUCCUCGCUGGCGCCGGCUGGGCAACAUUCCGAGGGGACAGUCCCCUCGGUAAUGGCGAAUGGGACCCA [G2A C58A]

1. 1.01
2. 0.11
3. 0.312
4. 0.234
